measured_target: P. falciparum apicoplast DNA polymerase (Pf-apPOL) (Plasmodium falciparum)
Sequence (Q8ILY1 entry or part of it): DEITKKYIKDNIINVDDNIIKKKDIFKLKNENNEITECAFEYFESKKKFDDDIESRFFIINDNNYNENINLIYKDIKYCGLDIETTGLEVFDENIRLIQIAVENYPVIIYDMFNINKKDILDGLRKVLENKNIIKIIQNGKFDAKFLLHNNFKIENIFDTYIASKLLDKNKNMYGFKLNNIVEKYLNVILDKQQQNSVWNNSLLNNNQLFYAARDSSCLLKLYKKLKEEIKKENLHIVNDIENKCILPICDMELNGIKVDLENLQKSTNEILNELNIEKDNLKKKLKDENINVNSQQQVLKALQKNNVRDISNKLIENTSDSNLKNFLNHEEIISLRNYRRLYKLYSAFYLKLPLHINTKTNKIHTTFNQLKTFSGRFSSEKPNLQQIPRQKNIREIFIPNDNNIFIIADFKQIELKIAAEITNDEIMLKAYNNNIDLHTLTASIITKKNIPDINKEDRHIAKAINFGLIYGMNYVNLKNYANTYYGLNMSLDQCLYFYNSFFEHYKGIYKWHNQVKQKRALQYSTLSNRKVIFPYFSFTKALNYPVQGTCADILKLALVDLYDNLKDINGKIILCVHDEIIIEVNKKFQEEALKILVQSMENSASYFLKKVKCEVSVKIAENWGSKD
test_details: Fluorescence-based high-throughput DNA polymerase assay (molecular beacon), primary screen and dose-response;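 note: test concentration in µM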
Assay type: biochemical
assay_setup: DRC-2; 90'; concentration 10
value_kind: % inhibition ApPOL 90' (%)
Expressed in %, but write only the number.

COc1ccc(CNC(=O)Cn2nc3c(c2NC(=O)Cc2cccs2)CSC3)cc1 [Molecule 55] ... 13
Cc1ccc2c(C(=O)NCCc3cccnc3)cc(NC(=O)C(C)C)cc2n1 [KU0206096] ... 21
O=C1C(=Cc2ccccc2O)Oc2ccc(O)cc21 [KU0196475] ... 15

Answer with % inhibition ApPOL 90' of COc1ccc(-c2n[nH]cc2Oc2ccc(Cl)cc2)c(O)c1 [KU0029837] measured for P. falciparum apicoplast DNA polymerase (Pf-apPOL) (Plasmodium falciparum).
44

Answer with % inhibition ApPOL 90' of O=C(NNC(=O)c1ccc(Cl)cc1)C(=O)NNC(=O)c1ccc(Cl)cc1 [Molecule 25] measured for P. falciparum apicoplast DNA polymerase (Pf-apPOL) (Plasmodium falciparum).
36

Answer with % inhibition ApPOL 90' of CCOC(=O)C1=C2c3cc(OC)c(OC)cc3CC(C)(C)N2C(=O)C1=O [KU0193659] measured for P. falciparum apicoplast DNA polymerase (Pf-apPOL) (Plasmodium falciparum).
22

Answer with % inhibition ApPOL 90' of O=C(CSc1nc2ccccc2s1)Nc1ncc([N+](=O)[O-])s1 [KU0019667] measured for P. falciparum apicoplast DNA polymerase (Pf-apPOL) (Plasmodium falciparum).
-10

Answer with % inhibition ApPOL 90' of Cc1ccc(C(=O)/C=C/C=C/C=C/N(C)C)o1 [Molecule 96, CN(/C=C/C=C/C=C/C(=O)c1ccc(o1)C)C] measured for P. falciparum apicoplast DNA polymerase (Pf-apPOL) (Plasmodium falciparum).
44

Answer with % inhibition ApPOL 90' of Cc1cc(C)cc(-n2nc3c(c2NC(=O)c2ccco2)CSC3)c1 [KU0055926] measured for P. falciparum apicoplast DNA polymerase (Pf-apPOL) (Plasmodium falciparum).
38

Answer with % inhibition ApPOL 90' of Cc1nc(C)c2c(n1)N(CC1CCCCC1)C(=O)CC2 [KU0218606] measured for P. falciparum apicoplast DNA polymerase (Pf-apPOL) (Plasmodium falciparum).
38

Answer with % inhibition ApPOL 90' of O=C1c2ccccc2C(=O)c2c1oc1c3c(ccc21)OCN(C1CCCC1)C3 [KU0064306] measured for P. falciparum apicoplast DNA polymerase (Pf-apPOL) (Plasmodium falciparum).
47

Answer with % inhibition ApPOL 90' of O=C1Nc2ccc(I)cc2C1=Cc1cc(Br)c(O)c(Br)c1 [Molecule 27] measured for P. falciparum apicoplast DNA polymerase (Pf-apPOL) (Plasmodium falciparum).
48

Answer with % inhibition ApPOL 90' of O=c1[nH]c2ccc([N+](=O)[O-])cc2c(-c2ccccc2)c1Sc1nc2ccccc2o1 [KU0067471] measured for P. falciparum apicoplast DNA polymerase (Pf-apPOL) (Plasmodium falciparum).
20

Answer with % inhibition ApPOL 90' of Cc1cccc(-c2nnc3ccc(NS(=O)(=O)c4ccc(C)c(C)c4)nn23)c1 [Molecule 40] measured for P. falciparum apicoplast DNA polymerase (Pf-apPOL) (Plasmodium falciparum).
29

Answer with % inhibition ApPOL 90' of N#CC(C#N)=C1SCN(c2cccc(Cl)c2)CS1 [Molecule 29, N#CC(=C1SCN(CS1)c1cccc(c1)Cl)C#N] measured for P. falciparum apicoplast DNA polymerase (Pf-apPOL) (Plasmodium falciparum).
56

Answer with % inhibition ApPOL 90' of COc1ccc(NC(=O)Cn2ccc3c(=O)[nH]ccc32)cc1Cl [Molecule 10, COc1ccc(cc1Cl)NC(=O)Cn1ccc2c1cc[nH]c2=O] measured for P. falciparum apicoplast DNA polymerase (Pf-apPOL) (Plasmodium falciparum).
66

Answer with % inhibition ApPOL 90' of O=C(Cn1ccc2c(=O)[nH]ccc21)Nc1ccc(Cl)cc1 [Molecule 36, O=C(Cn1ccc2c1cc[nH]c2=O)Nc1ccc(cc1)Cl] measured for P. falciparum apicoplast DNA polymerase (Pf-apPOL) (Plasmodium falciparum).
57

Answer with % inhibition ApPOL 90' of CC(=O)c1cc2c(N)c(/C(N)=N/C#N)sc2nc1C [KU0015866] measured for P. falciparum apicoplast DNA polymerase (Pf-apPOL) (Plasmodium falciparum).
14

Answer with % inhibition ApPOL 90' of NS(=O)(=O)c1ccc(NC(=O)c2ccc(N3C(=O)CCC3=O)cc2)cc1 [KU0025331] measured for P. falciparum apicoplast DNA polymerase (Pf-apPOL) (Plasmodium falciparum).
17

Answer with % inhibition ApPOL 90' of Cc1cccc(CC(=O)N2CCc3c(nc4cc(-c5ccccc5)[nH]n4c3=O)C2)c1 [Molecule 12] measured for P. falciparum apicoplast DNA polymerase (Pf-apPOL) (Plasmodium falciparum).
53

Answer with % inhibition ApPOL 90' of COCCN(CCOC)Cc1c(O)ccc2c1OC(=Cc1cc(Br)ccc1OC)C2=O [KU0198471] measured for P. falciparum apicoplast DNA polymerase (Pf-apPOL) (Plasmodium falciparum).
34

Answer with % inhibition ApPOL 90' of COc1cccc(Oc2c(C(F)(F)F)oc3cc(OC(=O)N(C)C)ccc3c2=O)c1 [Molecule 52] measured for P. falciparum apicoplast DNA polymerase (Pf-apPOL) (Plasmodium falciparum).
33

Answer with % inhibition ApPOL 90' of Cc1cccc(NC(=O)Cn2ccc3c(=O)[nH]ccc32)c1C [Molecule 11, O=C(Cn1ccc2c1cc[nH]c2=O)Nc1cccc(c1C)C] measured for P. falciparum apicoplast DNA polymerase (Pf-apPOL) (Plasmodium falciparum).
58

Answer with % inhibition ApPOL 90' of COc1ccc(NC(=O)Cn2ccc3c(=O)[nH]ccc32)cc1 [Molecule 13, COc1ccc(cc1)NC(=O)Cn1ccc2c1cc[nH]c2=O] measured for P. falciparum apicoplast DNA polymerase (Pf-apPOL) (Plasmodium falciparum).
38
